Provide the recorded cytotoxicity at 10 µM for the entries that follow.
- ASSAY PROCEDURE: in vitro
Counter-ions that a name gives are not always drawn.
Return type: number; implicit unit %.

Query string: Return reported cytotoxicity at 10 µM. Input compound: C=C1CC[C@H](O)C/C1=C/C=C1\CCC[C@]2(C)[C@@H]([C@H](C)CCCC(C)C)CC[C@@H]12 [CHOLECALCIFEROL]
Result string: -15.8

Query string: Return reported cytotoxicity at 10 µM. Input compound: CN(C)[C@@H]1C(O)=C(C(N)=O)C(=O)[C@@]2(O)C(O)=C3C(=O)c4c(O)cccc4[C@@](C)(O)[C@H]3C[C@@H]12 [TETRACYCLINE HYDROCHLORIDE]
Result string: -24.3

Query string: Return reported cytotoxicity at 10 µM. Input compound: COc1cc2c(c(OC)c1OC)-c1ccc(OC)c(=O)cc1[C@@H](NC(C)=O)CC2 [COLCHICINE]
Result string: -26.5

Query string: Return reported cytotoxicity at 10 µM. Input compound: C[C@]12CC[C@H](O)C[C@H]1CC[C@@H]1[C@@H]2C[C@@H](O)[C@]2(C)[C@@H](C3=CC(=O)OC3)CC[C@]12O [DIGOXIGENIN]
Result string: 19.2

Query string: Return reported cytotoxicity at 10 µM. Input compound: O=c1cccc2n1C[C@@H]1CNC[C@H]2C1 [CYTISINE]
Result string: -20

Query string: Return reported cytotoxicity at 10 µM. Input compound: COc1cc(/C=C/C(=O)N2CCC=CC2=O)cc(OC)c1OC [PIPLARTINE]
Result string: 20.5

Query string: Return reported cytotoxicity at 10 µM. Input compound: COC(=O)C1=CCCN(C)C1 [ARECOLINE HYDROBROMIDE]
Result string: -38.7

Query string: Return reported cytotoxicity at 10 µM. Input compound: CC1(C)CC[C@]2(C)CC[C@]3(C)C(=CC[C@@H]4[C@@]5(C)CC[C@H](O)C(C)(C)[C@@H]5CC[C@]43C)[C@@H]2C1 [beta-AMYRIN]
Result string: -8.3

====

- ASSAY PROCEDURE: in vitro
Provide the recorded cytotoxicity at 10 µM for the entries that follow.
Return type: number; implicit unit %.

Query string: Return reported cytotoxicity at 10 µM. Input compound: N#C[C@H](O[C@@H]1O[C@H](CO[C@@H]2O[C@H](CO)[C@@H](O)[C@H](O)[C@H]2O)[C@@H](O)[C@H](O)[C@H]1O)c1ccccc1 [AMYGDALIN]
Result string: 4.8

Query string: Return reported cytotoxicity at 10 µM. Input compound: C=C1C[C@]23C[C@@]1(O)CC[C@H]2[C@@]12C=C[C@H](O)[C@@](C)(C(=O)O1)[C@H]2[C@@H]3C(=O)O [GIBBERELLIC ACID]
Result string: 5.9

Query string: Return reported cytotoxicity at 10 µM. Input compound: O=c1cc(-c2ccccc2)oc2c(O)c(O)ccc12 [7,8-DIHYDROXYFLAVONE]
Result string: 28.8

Query string: Return reported cytotoxicity at 10 µM. Input compound: Cc1coc2c1C(=O)C(=O)c1c-2ccc2c1CCCC2(C)C [Tanshinone IIA]
Result string: 5.6

Query string: Return reported cytotoxicity at 10 µM. Input compound: CC(=O)O[C@]1(C)CC[C@@]23C[C@@H]1C(C)(C)[C@@H]2CC[C@H]3C [CEDRYL ACETATE]
Result string: 3.6

Query string: Return reported cytotoxicity at 10 µM. Input compound: C=C(C)c1cc2cc(C(C)=O)c(O)cc2o1 [EUPARIN]
Result string: 14.6

Query string: Return reported cytotoxicity at 10 µM. Input compound: NC(=O)NCCC[C@H](N)C(=O)O [CITRULLINE]
Result string: 34.9

Query string: Return reported cytotoxicity at 10 µM. Input compound: CC(=O)O[C@H]1CC[C@@]2(C)[C@H](CC[C@@H]3[C@@H]2CC[C@]2(C)[C@@H](C4=CC(=O)OC4)[C@@H](OC(C)=O)C[C@]32O)C1 [GITOXIGENIN DIACETATE]
Result string: 99.8

Query string: Return reported cytotoxicity at 10 µM. Input compound: CC1(C)C(=O)C=C[C@]2(C)[C@H]3CC[C@@]4(C)[C@H](c5ccoc5)OC(=O)[C@H]5O[C@]54[C@]3(C)[C@H](O)C[C@@H]12 [Deacetylgedunin]
Result string: 14.8

Query string: Return reported cytotoxicity at 10 µM. Input compound: COc1ccc2c(c1)OCC(Cc1ccc(OC)c(OC)c1)C2=O (centres unmarked)
Result string: 2.4

Query string: Return reported cytotoxicity at 10 µM. Input compound: C=C(C)[C@H]1COc2cc3oc(=O)ccc3cc2O1 [OBLIQUIN]
Result string: -25.7

Query string: Return reported cytotoxicity at 10 µM. Input compound: C[C@H]1O[C@@H](O[C@H]2[C@@H](O)C[C@H](O[C@H]3[C@@H](O)C[C@H](O[C@H]4CC[C@@]5(C)[C@H](CC[C@@H]6[C@@H]5C[C@@H](O)[C@]5(C)[C@@H](C7=CC(=O)OC7)CC[C@]65O)C4)O[C@@H]3C)O[C@@H]2C)C[C@H](O)[C@@H]1O [DIGOXIN]
Result string: 100

Query string: Return reported cytotoxicity at 10 µM. Input compound: COc1cc(/C=C/C(=O)O)cc(OC)c1OC [SINAPIC ACID METHYL ETHER]
Result string: 36.6

Query string: Return reported cytotoxicity at 10 µM. Input compound: C=C(C)[C@@H]1CC[C@]2(C(=O)O)CC[C@]3(C)[C@H](CC[C@@H]4[C@@]5(C)CC[C@H](O)C(C)(C)[C@@H]5CC[C@]43C)[C@@H]12 [BETULINIC ACID]
Result string: -17.4

# credit: paper PMC6736568
